PROTOCOL_SUMMARY: Displacement of fluorescein tagged BID BH3 peptide from His-tagged recombinant BFL-1 (1 to 151 residues) C55A mutant (unknown origin) expressed in Escherichia coli BL21 (DE3) assessed as inhibition constant incubated for 24 hrs by fluorescence polarization-based competitive binding assay
Set-up: species or system Homo sapiens
pKi: −log10 of the molar value.

- MOL_SMILES: "CCC(=O)N1CCN(c2c3ccc(-c4cccc(F)c4)cc3nn2Cc2ccccc2)CC1"
  RELATION_OPERATOR: "<"
  pKi: 3.70
- MOL_SMILES: "C=CC(=O)N1CCN(c2c3ccc(-c4cccc(F)c4)cc3nn2Cc2ccccc2)CC1"
  RELATION_OPERATOR: "="
  pKi: 5.06
- MOL_SMILES: "CC(C)(C)c1ccc(CN2CCN(S(=O)(=O)Nc3ccc(SCCc4ccccc4)cc3C(=O)O)CC2)cc1"
  RELATION_OPERATOR: "="
  pKi: 5.64
